Data provenance is paper PMC12207370.

Molecular target: biotinylated CD59 (Homo sapiens, UniProt P13987)
Construct: Recombinant soluble human CD59 with an additional C-terminal cysteine residue
Sequence (P13987 26-102 limits assumed): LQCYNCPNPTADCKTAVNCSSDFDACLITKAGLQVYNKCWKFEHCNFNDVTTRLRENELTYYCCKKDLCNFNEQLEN
Experiment: mRNA-display cyclic peptide screen against CD59-biotin, NGS abundance after 6th selection round
Conditions: percentage of the pool averaged across the two sequencing samples, sheet R6
Percentage Average strictly less than 0.04% = yes (1). Otherwise no (0).

Example entries begin here.
[[record]]
sequence_chain = "VAHGSKNSQFW"
assay_system = "biotinylated CD59 (Homo sapiens, UniProt P13987)"
class_label = "no (0)"

[[record]]
sequence_chain = "LCYVKGSKNFT"
assay_system = "biotinylated CD59 (Homo sapiens, UniProt P13987)"
class_label = "no (0)"

[[record]]
sequence_chain = "YAFGSRDITYY"
assay_system = "biotinylated CD59 (Homo sapiens, UniProt P13987)"
class_label = "yes (1)"

[[record]]
sequence_chain = "AVWGSAHDRWE"
assay_system = "biotinylated CD59 (Homo sapiens, UniProt P13987)"
class_label = "no (0)"

[[record]]
sequence_chain = "CFTLRLSQTSV"
assay_system = "biotinylated CD59 (Homo sapiens, UniProt P13987)"
class_label = "no (0)"

[[record]]
sequence_chain = "CFSQRLDRTSS"
assay_system = "biotinylated CD59 (Homo sapiens, UniProt P13987)"
class_label = "yes (1)"

[[record]]
sequence_chain = "CFSRRLTAGAI"
assay_system = "biotinylated CD59 (Homo sapiens, UniProt P13987)"
class_label = "no (0)"

[[record]]
sequence_chain = "CAWGNRHIAYY"
assay_system = "biotinylated CD59 (Homo sapiens, UniProt P13987)"
class_label = "no (0)"

[[record]]
sequence_chain = "FVRGDLYSVLG"
assay_system = "biotinylated CD59 (Homo sapiens, UniProt P13987)"
class_label = "no (0)"

[[record]]
sequence_chain = "CFTGRLSLDSI"
assay_system = "biotinylated CD59 (Homo sapiens, UniProt P13987)"
class_label = "yes (1)"


Attention now turns to another entry.
Does this sequence meet the criterion Percentage Average < 0.04%? WILGSRWWTQT
yes (1)
